Sourced from patent US20220168329A1

Tested on: WT and PRMT5 knockout (KO) PDAC cells (mPanc96, PANC-1)
MEASUREMENT_NOTES: MTT cell viability assay, WT vs PRMT5 KO clones
Assay type: cell-based
TEST_SETTINGS: Homo sapiens, clones with even partial PRMT5 depletion (PRMT5 KO)
Procedure: PDX366, mPanc96, and PANC-1 cells were seeded in a flat-bottom 96-well plate (Corning) in triplicate at a density of 1-2×10^3 cells per well. The following day, cells were treated with gemcitabine (GEMZAR; Eli Lilly) and EPZ015666 (GSK3235025; SelleckChem) or EPZ015938 (GSK3326595; ChemieTek) for 4-5 days prior to MTT (3-(4,5-dimethylthiazolyl)-2,5-diphenyltetrazolium bromide) to determine effects of drugs on cell viability. […] The absorbance was read at 595 nm. […]
pIC50: −log10 of the molar value.
PROPERTY_NAME: pIC50

Exam item: Entry Nc1ccn([C@@H]2O[C@H](CO)[C@@H](O)C2(F)F)c(=O)n1 [Gem, 2′,2′-difluoro 2′-deoxycytidine] has what pIC50?
Marked response: 5.30 to 5.40
